System: MM1.s (human myeloma cell line)
Assay Details: Cell proliferation assay (CellTiter-Glo), MM1.s
Format: cell-based
Condition Parameters: MM1.s cells, read-out: EC50 (μM) MM1.s
Measurement Type: EC50

                                        mol      result
0  Nc1cc(F)c(-c2c(F)cccc2F)nc1C(=O)Nc1cnccc1N1CCC[C@H](N)C1      < 1 µM
1  N[C@H]1CCCN(c2ccncc2NC(=O)c2cccc(-c3c(F)cccc3F)n2)C1  5 to 10 µM
2  CCCOc1ccc(F)c(-c2nc(C(=O)Nc3cnccc3N3CCC[C@H](N)C3)c(N)cc2F)c1F   1 to 5 µM
3  Nc1ccc(-c2c(F)cccc2F)nc1C(=O)Nc1cnccc1N1CCC[C@H](N)C1      < 1 µM
